Assay: Evaluation of pharmacokinetic parameters for Clarithromycin following multiple oral doses of Clarithromycin tablets.
Assay type: ADME, organism-based
Design: dose 250 mg, dose 500 mg, dose 1000 mg, route oral
Settings: human, in vivo; dose 500 mg, dosed compound id 21, dosed compound name CLARITHROMYCIN, regimen Every 12h, route oral, tissue Plasma
experimental.endpoint: half-life

Data request: Read the entry CC[C@H]1OC(=O)[C@H](C)[C@@H](O[C@H]2C[C@@](C)(OC)[C@@H](O)[C@H](C)O2)[C@H](C)[C@@H](O[C@@H]2O[C@H](C)C[C@H](N(C)C)[C@H]2O)[C@](C)(OC)C[C@@H](C)C(=O)[C@H](C)[C@@H](O)[C@]1(C)O [CLARITHROMYCIN] and write its reported half-life.
Data returned: 5 to 7 h
